# experimentalSystem: Tyrosine-protein kinase Fer (Homo sapiens)
# conditionNotes: at 10 µM
Give residual activity for every item shown.
Numbers only, in %.

Give residual activity for each of the items listed below.
1. Oc1n[nH]c2nnc(-c3c(-c4ccccc4)nn4ccccc34)cc12
2. O=Nc1c(-c2c(O)[nH]c3ccccc23)[nH]c2ccccc12
3. Cn1cc(/C=C2\C(=O)Nc3ccc(S(N)(=O)=O)cc32)c2ccccc21

1: 91; 2: 53; 3: 9

Please give residual activity, item by item, for the list that follows.
1. NC(=O)c1ccc2[nH]c(-c3ccc(Oc4ccc(Cl)cc4)cc3)nc2c1
2. O=C1NC(=O)/C(=C\c2ccc3nccnc3c2)S1
3. Cc1ccc(NC2=CC(=O)c3sc(C)nc3C2=O)cc1
4. CNc1cc2c(Nc3cccc(Br)c3)ncnc2cn1

1. 89
2. 94
3. 96
4. 90

* * *

# experimentalSystem: Dual specificity protein kinase CLK3 (Homo sapiens)
# conditionNotes: at 1 µM
Assign residual activity to each entry below.
Give bare numbers, in %.

Record excerpt, results attached:
Cn1cnc2cc3c(Nc4cccc(Br)c4)ncnc3cc21 91
Nc1cccc(-c2cc3c(Oc4cccc(O)c4)ncnc3[nH]2)c1 75
O=C(O)c1ccc2c3c1cccc3c(=O)n1c3ccccc3nc21 77
N#CC(C#N)=C(N)/C(C#N)=C/c1ccc(O)cc1 87
CC(C)n1cnc2/c(=N/c3cccc(Cl)c3)nc(NCCO)[nH]c21 55
Oc1ccc(-c2nc(-c3ccc(F)cc3)c(-c3ccncc3)[nH]2)cc1 94
CNc1cc2c(Nc3cccc(Br)c3)ncnc2cn1 95
COc1cccc(-c2cc(=O)c3ccccc3o2)c1N 90

Go through the list and state residual activity for each entry.
1. O=c1c2ccccc2[nH]c(=S)n1CCN1CCC(=C(c2ccc(F)cc2)c2ccc(F)cc2)CC1
2. c1ccc2c(-c3ccncc3)c[nH]c2c1
3. COc1ccc(CNc2nc(N(CCO)CCO)nc3c2ncn3C(C)C)cc1
4. CCC(=O)Nc1ccc2ncnc(Nc3cccc(Br)c3)c2c1
5. CCN(CC)CCCCN1c2ccccc2Oc2ccc(Cl)cc21

1: 90; 2: 87; 3: 87; 4: 76; 5: 89

Provide residual activity values for the following items, in order.
1. CN(C)CCCn1cc(C2=C(c3c[nH]c4ccccc34)C(=O)NC2=O)c2ccccc21
2. O=C1c2ccccc2-[n+]2ccc3c([nH]c4ccccc43)c21
3. Nc1nc(Nc2ccc(S(N)(=O)=O)cc2)nn1C(=S)Nc1c(F)cccc1F
4. CC#CC(=O)Nc1cc2c(Nc3ccc(F)c(Cl)c3)ncnc2cn1

1: 66; 2: 79; 3: -4; 4: 83

Need residual activity for each of these molecules.
1. N#C/C(=C(\N)Sc1ccc(N)cc1)c1ccccc1C(F)(F)F
2. CC(=O)O/N=C1\C(=C2\C(=O)Nc3cc(Br)ccc32)Nc2ccccc21
3. O=C(Nc1cccc(Nc2nccc(Nc3cccc(C(F)(F)F)c3)n2)c1)C1CC1
4. O=C1Nc2cc(Br)ccc2/C1=C1/Nc2ccccc2/C1=N\O

[95, 82, 76, 79]

* * *

Please go through the items and note down their residual activity.
# experimentalSystem: Serine/threonine-protein kinase Nek3 (Homo sapiens) (UniProt P51956);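 note: residual NEK3 kinase activity given as percent of control, assayed in 8 mM MOPS buffer pH 7.0 containing 0.2 mM EDTA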
# Sequence (P51956 whole entry): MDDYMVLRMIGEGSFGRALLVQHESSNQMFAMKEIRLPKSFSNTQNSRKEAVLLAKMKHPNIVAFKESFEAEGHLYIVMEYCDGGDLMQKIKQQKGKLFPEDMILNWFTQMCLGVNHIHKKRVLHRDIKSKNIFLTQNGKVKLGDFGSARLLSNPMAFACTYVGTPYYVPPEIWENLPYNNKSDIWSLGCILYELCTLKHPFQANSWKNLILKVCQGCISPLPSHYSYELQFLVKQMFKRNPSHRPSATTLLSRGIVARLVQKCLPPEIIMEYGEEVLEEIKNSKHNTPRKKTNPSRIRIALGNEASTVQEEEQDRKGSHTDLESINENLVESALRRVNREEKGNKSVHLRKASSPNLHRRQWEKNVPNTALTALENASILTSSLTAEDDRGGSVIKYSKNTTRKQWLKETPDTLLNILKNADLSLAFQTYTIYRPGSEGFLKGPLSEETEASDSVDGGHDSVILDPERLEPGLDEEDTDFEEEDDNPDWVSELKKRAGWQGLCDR
# conditionNotes: at 1 µM
# Description: Millipore: Percentage of residual kinase activity of NEK3 at 1uM relative to control. Control inhibitor: Phosphoric acid* at 0.3uM. Buffer: 8 mM MOPS pH 7.0, 0.2 mM EDTA
Numbers only, in %.

Cc1nc2cc3nc(-c4cccs4)cnc3cc2n1C 114
O=C1Nc2cc(Br)ccc2/C1=C1/Nc2ccccc2/C1=N\O 65
CO[C@H]1C[C@@H]2CC[C@@H](C)[C@@](O)(O2)C(=O)C(=O)N2CCCC[C@H]2C(=O)O[C@H]([C@H](C)C[C@@H]2CC[C@@H](O)[C@H](OC)C2)CC(=O)[C@H](C)/C=C(\C)[C@@H](O)[C@@H](OC)C(=O)[C@H](C)C[C@H](C)/C=C/C=C/C=C/1C 113
Nc1cccc(-c2cc3c(Oc4cccc(O)c4)ncnc3[nH]2)c1 42
O=[N+]([O-])c1ccc(-c2nc(-c3ccc(F)cc3)c(-c3ccncc3)[nH]2)cc1 90

Then this molecule:
Lab note: need residual activity with Serine/threonine-protein kinase Nek3 (Homo sapiens) (UniProt P51956) for entry O=C1NC(=O)/C(=C\c2ccc3nccnc3c2)S1 , please look it up.
109
